- assayed target: HLA-A*02:01;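 further: lysates heated 10 min at 37–73 °C, complexes pulled down with pan-HLA I antibody, peptide signal by DIA-MS relative to 37 °C, Tm where half the complex is unfolded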
- experiment description: thermal melting temperature (Tm) of peptide-HLA complex; higher = more thermostable pHLA complex
- stated conditions: C1R-A*02:01
In all, about 1,100 sequences were measured (“thermal melting temperature (Tm) of peptide-HLA complex”: median about 58, lowest 2% from about 42 on). The sample as a whole holds a higher share of the lowest values than the screen did.
Listed here are sequences together with their documented thermal melting temperature.
Number in °C, nothing else.

Exam item: Request the reported thermal melting temperature associated with VLDEEIAKA
Marked response: 40.7

Exam item: Request the reported thermal melting temperature associated with KLGDFGLLV
Marked response: 60.4

Exam item: Request the reported thermal melting temperature associated with TLLTDPPTA
Marked response: 59.5

Exam item: Request the reported thermal melting temperature associated with FLNKEITSV
Marked response: 59.6
